Test system: NCI-H460 lung
Test: NCI-60 one-dose screen, 48 h
Details: 10 µM unless noted
This is part of a sample that, as a whole, favours compounds with a hit. Of some 83,000 tested, about 20% had one in any assay. Calls of active or inactive are those of the source. How the source made its calls: active means growth percent below 10; inactive means the rest.
Outcomes: label 1 = active, label 0 = inactive

{"columns": ["chemical structure", "class name"],
 "data": [
  ["CC1=C(C(=O)Nc2nc(-c3ccc(Cl)cc3)cs2)[C@H](c2ccc(O)cc2)NC(=O)N1", "label 0"],
  ["COc1ccc(/C=C2\\COc3ccc(O)cc3C2=O)cc1", "label 0"],
  ["COc1ccc(/C(C)=C(/c2ccc(OCCCN(C)C)cc2)c2ccc(OC(=O)c3ccccc3)cc2)cc1", "label 0"],
  ["CN1CCN(Cc2ccc(NC(=O)c3cncc(C#Cc4cnc(N)c5ncccc45)c3)cc2C(F)(F)F)CC1", "label 1"],
  ["CCCCNC(=O)Oc1ccc(/C(=C(/C)Cc2ccc(OC)cc2)c2ccc(OCCN3CCCCC3)cc2)cc1", "label 0"],
  ["COc1ccc2c(c1)c(/C(O)=C1\\COC(=O)C1=O)cn2Cc1ccc(F)cc1", "label 0"],
  ["CO[C@H]1CC(=O)n2c3ccccc3c3c4c(c5c6ccccc6n1c5c32)C(=O)NC4=O", "label 0"],
  ["O=C1c2ccccc2C(=O)C1c1ccc(Br)cc1", "label 0"],
  ["COc1cc(OC)c(/C=C/C(=O)c2c(O)cc(OC)c(C3CCN(C)CC3)c2OC)c(OC)c1", "label 1"]
]}

Values were extracted from PubChem BioAssay (NCI).
